B1: MMP1 (parent)
chain: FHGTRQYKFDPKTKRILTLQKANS

Variants of: B1
Assay: protein stability index of a GFP-peptide fusion (GPS, HEK-293T) (PSI 1-6); higher = more stable;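 note: lentivirally expressed fusions sorted by FACS into six bins by GFP to DsRed ratio, PSI derived from sequencing read proportions per bin multiplied by bin number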
Settings: c terminus: a fixed tail appended
# protein stability index >= 2 gives criterion met, anything below gives criterion not met

>>> classification("R5K")
"criterion met"
>>> classification("H2A")
"criterion not met"
>>> classification("I16L")
"criterion met"
>>> classification("A22Q")
"criterion met"
>>> classification("Q20K")
"criterion not met"
>>> classification("N23H")
"criterion not met"
>>> classification("L17K")
"criterion met"
>>> classification("K8Q")
"criterion not met"
>>> classification("D10R")
"criterion not met"
>>> classification("N23L")
"criterion met"
>>> classification("G3S")
"criterion not met"
>>> classification("R15Y")
"criterion not met"
>>> classification("G3L")
"criterion not met"
>>> classification("S24M")
"criterion not met"
